Measured values drawn from patent US12312333B2 for this set.

measured_on: human KCa2.3 channels (Homo sapiens, UniProt P0DP23+Q9UGI6)
method_description: Inside-out patch-clamp potentiation of KCa2.3 channels expressed in HEK293 cells
test_context: inside-out patch, HEK293, 0.15 μM Ca2+; read-out: EC50 on potentiating KCa2.3 channels
pEC50: −log10 of the molar value.

[
  {
    "compound": "Cc1cc(Nc2ccc(F)c(Cl)c2)nc(-n2nc(C)cc2C)n1 [Compound 2o]",
    "pEC50": 6.72
  },
  {
    "compound": "Cc1cc(Nc2cc(Cl)ccc2F)nc(-n2nc(C)cc2C)n1 [Compound 2q]",
    "pEC50": 6.22
  }
]

----------
measured_on: rat KCa2.2a (UniProt P0DP23+P70604)
Construct: expressed in transfected cells; host or cells: HEK293
method_description: Inside-out patch-clamp potentiation of KCa2.2a channels expressed in HEK293 cells
Type: cell-based
test_context: inside-out patch, HEK293

[
  {
    "compound": "Cc1cc(Nc2ccc([N+](=O)[O-])cc2)nc(-n2nc(C)cc2C)n1 [Compound 2l]",
    "activity / potency on KCa2.2a channels": "inactive"
  },
  {
    "compound": "Cc1cc(Nc2ccc(S)cc2)nc(-n2nc(C)cc2C)n1 [Compound 2k]",
    "activity / potency on KCa2.2a channels": "inactive"
  }
]

----------
measured_on: rat KCa2.2a (UniProt P0DP23+P70604)
Construct: expressed in transfected cells; host or cells: HEK293
method_description: Inside-out patch-clamp potentiation of KCa2.2a channels expressed in HEK293 cells
Type: cell-based
test_context: inside-out patch, HEK293, 0.15 μM Ca2+, current at −90 mV; read-out: EC50 (mean ± SEM, μM) on potentiating KCa2.2a channels
measurement_name: log10 of EC50 (log10 of the value in µM)

[
  {
    "compound": "Cc1cc(Nc2cc(Cl)ccc2F)nc(-n2nc(C)cc2C)n1",
    "log10 of EC50": -0.19
  },
  {
    "compound": "Cc1cc(Nc2ccc(F)c(Cl)c2)nc(-n2nc(C)cc2C)n1",
    "log10 of EC50": 0.00
  },
  {
    "compound": "Cc1cc(Nc2ccc(C(F)(F)F)c(Cl)c2)nc(-n2nc(C)cc2C)n1",
    "log10 of EC50": 0.51
  },
  {
    "compound": "Cc1cc(Nc2cc(Cl)ccc2F)nc(-c2coc(C)n2)n1",
    "log10 of EC50": 1.14
  },
  {
    "compound": "Cc1cc(Nc2ccc(Cl)cc2F)nc(-n2nc(C)cc2C)n1",
    "log10 of EC50": 0.30
  },
  {
    "compound": "Cc1cc(Nc2cccc(F)c2F)nc(-n2nc(C)cc2C)n1",
    "log10 of EC50": 0.70
  },
  {
    "compound": "Cc1cc(Nc2cc(F)ccc2F)nc(-n2nc(C)cc2C)n1",
    "log10 of EC50": 0.28
  },
  {
    "compound": "Cc1cc(Nc2cc(F)ccc2Cl)nc(-n2nc(C)cc2C)n1",
    "log10 of EC50": 0.47
  },
  {
    "compound": "Cc1cn(-c2nc(C)cc(Nc3ccc(F)c(Cl)c3)n2)cn1",
    "log10 of EC50": 1.59
  },
  {
    "compound": "Cc1cc(Nc2cc(C(=O)O)ccc2F)nc(-n2nc(C)cc2C)n1",
    "log10 of EC50": 1.58
  },
  {
    "compound": "Cc1cc(C)n(-c2cc(C)c(Nc3ccc(F)c(Cl)c3)nn2)n1",
    "log10 of EC50": 0.64
  },
  {
    "compound": "Cc1cc(Nc2ccc(F)c(Cl)c2)nc(-c2coc(C)n2)n1",
    "log10 of EC50": 0.56
  },
  {
    "compound": "Cc1cc(Nc2ccc(C(F)(F)F)cc2)nc(-n2nc(C)cc2C)n1",
    "log10 of EC50": 0.54
  },
  {
    "compound": "Cc1cc(NC2CCCCC2)nc(-n2nc(C)cc2C)n1",
    "log10 of EC50": 0.87
  },
  {
    "compound": "COC1CCC(Nc2cc(C)nc(-n3nc(C)cc3C)n2)CC1 (centres unmarked)",
    "log10 of EC50": 1.70
  },
  {
    "compound": "Cc1cn(-c2nc(C)cc(Nc3cc(Cl)ccc3F)n2)cn1",
    "log10 of EC50": 0.65
  }
]
